assay: binders of probe aFST on microarray, primary screen, stem cell growth factor project, biochemical, small-molecule microarray, fluorescence 635/667 (AID 1086); details: higher = more signal;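 further: score merges 667 nm fluorescence with signal-to-noise of each printed compound spot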
Please enter met where composite z-score is greater than or equal to 0.6, and not met where it is lower.

Consider the worked cases shown below.
{"columns": ["compound", "group"],
 "data": [
  ["C=CCC(OC(C)=O)[C@@H]1[C@@H](N(Cc2ccc(-c3cccc(C(F)(F)F)c3)o2)C(=O)c2ccc(-c3ccccc3)cc2)c2cc(OCCCO)ccc2N1C(=O)c1ccc2ccccc2n1 (some centres undefined)", "met"],
  ["COCCCNC(=O)[C@@]1(Cc2ccccc2N=[N+]=[N-])COC(c2ccc(OCCCO)cc2)=N1", "met"],
  ["NCCCCCNC(=O)[C@@H]1C[C@@H]2C(=O)NCC(=O)N2[C@@H]1c1cccc(OCCO)c1", "not met"],
  ["COc1cc(OC)c(C(O)C2C=CC3C(=O)N(C)C(=O)C3N2NC(=O)OC(C)(C)C)cc1Br (centres undefined)", "met"],
  ["C#CCN([C@@H](Cc1ccc(O)cc1)C(=O)OC)[C@@H](/C=C/C1CC1)[C@H](O)Cc1ccccc1", "not met"],
  ["O=C1OCCC/C=C\\[C@H]2OC34C=CCN(CCN5CCOCC5)C(=O)[C@H]3N(CCCCCCO)C(=O)[C@@H]4C12 (some centres undefined)", "not met"]
]}

Exercise: Could you tell me if the measured composite z-score of "CCOC(=O)[C@H]1[C@@H]2C(=O)N3CCC[C@H]3[C@H](O[Si](C(C)C)(C(C)C)C(C)C)[C@H]2C=C2CCN(S(=O)(=O)c3ccc(C)cc3)C[C@H]21" reaches 0.6 or more?
Key: not met

Exercise: Please tell me: is the compound COc1cc(OC)c(C(O)C2C=CC3C(=O)N(c4ccccc4)C(=O)C3N2Nc2ccccc2)cc1Br (centres undefined) at or over 0.6 in terms of composite z-score?
Key: not met

Exercise: I'd appreciate it if you could say whether "CC(C)N1C(=O)C[C@@](C(=O)NCCCN(C)C)(c2ccc([N+](=O)[O-])cc2)[C@H]1c1ccc(CO)cc1" has composite z-score at least equal to 0.6.
Key: not met

Exercise: Decide: composite z-score of "CCOC(=O)C[C@H]1[C@H](OC(=O)Cc2ccc3c(c2)OCO3)[C@@H](NC(=O)Cc2ccc(OC)cc2)c2cc(OCCCO)ccc2N1C(=O)c1ccc2ccccc2n1" >= 0.6?
Key: not met

Exercise: Is composite z-score for "Cc1ccc(S[C@]2(C(=O)O)CC(=O)N(Cc3ccccc3Cl)[C@@H]2c2ccc(CO)cc2I)cc1" at or above 0.6?
Key: not met

Exercise: Given "CC(C)C[C@@H]1NC(=O)[C@@H]2C[C@H](C(=O)NCCCCCN)[C@H](c3ccc(O)cc3)N2C1=O" , state whether its composite z-score is at least 0.6.
Key: not met

Exercise: Test whether the compound "CCCCO[C@H]1C[C@H]2C(I)=C[C@@H]1C(=O)[C@]21CO1" records composite z-score of 0.6 or higher.
Key: not met

Exercise: Decide: composite z-score of "COCCCNC(=O)[C@@]1(Cc2ccccc2CN=[N+]=[N-])N=C(c2ccc(OCCCO)cc2)O[C@H]1c1ccccc1" >= 0.6?
Key: met

Exercise: In plain terms: is recorded composite z-score at least 0.6 for N#Cc1ccc(C(O)C2C=CC3C(=O)N(c4ccccc4)C(=O)C3N2Nc2ccccc2)cc1 (centres undefined) ?
Key: met

Exercise: Hi, just wondering whether "COC(=O)[C@@]1(Cc2ccccc2)[C@H]2c3cc(C(=O)N(C)C)n(CCc4ccc(O)c(OC)c4)c3C[C@H]2CN1C(=O)c1ccccc1" shows composite z-score of 0.6 or higher.
Key: met

Exercise: Quick check, composite z-score >= 0.6? "COCCOC(=O)N1C(=O)[C@@]2(c3cc(C#Cc4ccc(OC)cc4)ccc31)[C@H](c1ccc(O)cc1)N1[C@H](c3ccccc3)[C@H](c3ccccc3)OC(=O)[C@H]1[C@@H]2C(=O)N1CCCCCCC1"
Key: met

Exercise: // inclusive: composite z-score at least 0.6? input: "CN(C)C(=O)[C@@]1(Cc2ccccc2CN=[N+]=[N-])N=C(c2ccc(OCCCO)cc2)O[C@H]1c1ccccc1CN=[N+]=[N-]"
Key: not met

Exercise: Item CC1CC/C=C\[C@H]2OC34C=CCN(c5ccc(Cl)cc5)C(=O)[C@H]3N(CCCCCO)C(=O)[C@]4(C)C2C(=O)O1 (some centres undefined) with composite z-score of 0.6 or above?
Key: not met

Exercise: Is reported composite z-score greater than or equal to 0.6 here: O=C1OCCC=C[C@H]2OC34C=CCN(Cn5nnc6ccccc65)C(=O)[C@H]3N(CCCCCCO)C(=O)[C@@H]4C12 (some centres undefined)
Key: not met

Exercise: Evaluate "C=C(/C(=C/C[C@H](OC(=O)c1ccncc1)c1ccc(CO)o1)c1cc(C(=O)OC)ccc1OC)C(C)C" : composite z-score at minimum 0.6?
Key: not met

Exercise: Check this compound for composite z-score at or above 0.6: O=C1OCC=C[C@H]2OC34C=CCN(Cc5ccccc5)C(=O)[C@H]3N(CCCCCCO)C(=O)[C@@H]4[C@@H]12 (some centres undefined)
Key: not met

Exercise: Check this compound for composite z-score at or above 0.6: CCOc1cc(C(O)C2C=CC3C(=O)N(c4ccccc4)C(=O)C3N2Nc2ccc(C#N)cc2)ccc1O (centres undefined)
Key: not met

Exercise: Determine whether this compound has composite z-score no lower than 0.6: "C=C(/C(=C/C[C@H](OC(C)=O)c1cccc(OCCO)c1)c1cnc2ccccc2c1)C(C)C"
Key: not met

Exercise: Please check the record "C=CCOC(=O)[C@H]1[C@@H]2C(=O)O[C@@H](c3ccccc3)[C@@H](c3ccccc3)N2[C@@H](c2ccc(OCCOC(=O)[C@H]3C[C@H]4C(=O)N[C@@H](CCCCNC(C)=O)C(=O)N4[C@H]3c3ccc(O)cc3)cc2)[C@]12C(=O)Nc1ccccc12" and state if its composite z-score is at or above 0.6.
Key: not met

Exercise: Check if composite z-score >= 0.6 (inclusive). Item: "O=C(NCCCCCNC(=O)/C(Cc1ccccc1)=N/O)OCc1ccccc1"
Key: not met

Exercise: Decide: composite z-score of "COc1ccc(-c2nc(-c3ccccc3)c3c(c2C)CO[Si]3(C(C)C)C(C)C)cn1" >= 0.6?
Key: not met
